# tested_target: b-Raf (V600E) (Homo sapiens (Human), UniProt P15056, V600E)
# Sequence (P15056 whole entry V600E): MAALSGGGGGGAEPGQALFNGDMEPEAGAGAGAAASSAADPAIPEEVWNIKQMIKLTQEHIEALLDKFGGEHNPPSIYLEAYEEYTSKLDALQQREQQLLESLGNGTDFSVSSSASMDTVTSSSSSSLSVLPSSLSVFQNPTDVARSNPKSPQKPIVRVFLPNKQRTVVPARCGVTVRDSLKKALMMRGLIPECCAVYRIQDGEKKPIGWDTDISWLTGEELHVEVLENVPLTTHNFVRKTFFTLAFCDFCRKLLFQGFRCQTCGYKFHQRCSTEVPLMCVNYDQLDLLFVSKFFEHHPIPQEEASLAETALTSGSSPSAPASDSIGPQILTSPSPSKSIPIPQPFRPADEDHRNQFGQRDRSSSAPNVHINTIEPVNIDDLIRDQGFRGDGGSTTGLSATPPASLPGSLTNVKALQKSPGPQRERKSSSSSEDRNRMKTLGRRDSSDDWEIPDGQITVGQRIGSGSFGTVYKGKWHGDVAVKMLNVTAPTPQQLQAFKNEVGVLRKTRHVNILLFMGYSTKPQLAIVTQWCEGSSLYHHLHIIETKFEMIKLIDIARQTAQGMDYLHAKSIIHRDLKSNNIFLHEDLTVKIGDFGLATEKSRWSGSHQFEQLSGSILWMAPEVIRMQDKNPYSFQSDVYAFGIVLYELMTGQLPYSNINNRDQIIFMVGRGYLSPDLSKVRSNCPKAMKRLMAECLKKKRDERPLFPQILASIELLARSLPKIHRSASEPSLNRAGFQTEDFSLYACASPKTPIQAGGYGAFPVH
# details: read-out: b-Raf IC-50; Table 2; AlphaScreen, 3 hours reaction
measurement_kind: IC50 (nM)
Quick note: give the figure in nM, leave out the unit.

Prompt: What value of measured IC50 is listed for Cc1ccc(NC(=O)c2cnnc(C(C)(C)F)c2)cc1-c1cc(N2CCOCC2)c(=O)n(C)c1 ?
Response: 3.8

Prompt: What value of measured IC50 is listed for Cc1ccc(NC(=O)c2cccc(C(F)(F)F)c2)cc1-c1cncc(N2CCOCC2)n1 ?
Response: 0.7

Prompt: What value of measured IC50 is listed for Cc1ncc(NC(=O)c2ccnc(C(C)(C)C#N)c2)cc1-c1cnc(N(C)C)c(N2CCOCC2)c1 ?
Response: 4.5

Prompt: What value of measured IC50 is listed for CC(C)c1cc(C(=O)Nc2ccc(Cl)c(-c3cc(N4CCOCC4)c(=O)n(C)c3)c2)ccn1 ?
Response: 1

Prompt: What value of measured IC50 is listed for COc1ncc(-c2cc(NC(=O)c3ccnc(C(C)(F)F)c3)cnc2Cl)cc1N1CCOCC1 ?
Response: 1.8

Prompt: What value of measured IC50 is listed for COc1ncc(-c2cc(NC(=O)c3ccnc(C(C)(C)F)c3)cnc2C)cc1N1CCOCC1 ?
Response: 6.3

Prompt: What value of measured IC50 is listed for Cc1ncc(NC(=O)c2cc(CN(C)C)cc(C(F)(F)F)c2)cc1-c1cnc(C#N)c(N2CCOCC2)c1 ?
Response: 36.5

Prompt: What value of measured IC50 is listed for Cc1ccc(NC(=O)c2cc(C(C)C)on2)cc1-c1cc(N2CCOCC2)c(=O)n(C)c1 ?
Response: 0.8

Prompt: What value of measured IC50 is listed for CCOc1cc(C(=O)Nc2ccc(C)c(-c3cc(N4CCOCC4)c(=O)n(C)c3)c2)ccc1F ?
Response: 3.1

Prompt: What value of measured IC50 is listed for CCOc1ncc(-c2cc(NC(=O)c3ccnc(C4CC4)c3)cnc2C)cc1N1CCOCC1 ?
Response: 1.8

Prompt: What value of measured IC50 is listed for Cc1ncc(NC(=O)c2ccnc(C(C)(C)C#N)c2)cc1-c1cc(N2CCOCC2)c(=O)n(C)c1 ?
Response: 47.5

Prompt: What value of measured IC50 is listed for CCOc1ncc(-c2cc(NC(=O)c3ccnc(S(C)(=O)=O)c3)cnc2C)cc1N1CCOCC1 ?
Response: 5.3

Prompt: What value of measured IC50 is listed for CCN1CCN(c2cc(C(=O)Nc3ccc(C)c(-c4cc(N5CCOCC5)nc(N5CCOCC5)n4)c3)cc(C(F)(F)F)c2)CC1 ?
Response: 4

Prompt: What value of measured IC50 is listed for CCOc1ncc(-c2cc(NC(=O)c3cc(CN(C)C)cc(C(F)(F)F)c3)cnc2C)cc1N1CCOCC1 ?
Response: 8.3

Prompt: What value of measured IC50 is listed for Cc1ncc(NC(=O)c2cc(C(F)(F)F)nn2C)cc1-c1cc(N2CCOCC2)c(=O)n(C)c1 ?
Response: 900

---

# tested_target: b-Raf (V600E) (Homo sapiens (Human), UniProt P15056, V600E)
# details: read-out: b-Raf IC-50; AlphaScreen, 60 min pre-incubation, 3 hours reaction
pIC50: −log10 of the molar value.
Please enter 1 where pIC50 is greater than or equal to 9, and 0 where it is lower.

Prompt: Has COCCOc1nnc(-c2cc(NC(=O)c3ccnc(C(C)(F)F)c3)ccc2C)cc1N1CCOCC1 [Example 597] a recorded pIC50 greater than or equal to 9?
Response: 1

Prompt: Has Cc1ncc(NC(=O)c2cccc(C(F)(F)F)c2)cc1-c1cc(N2CCOCC2)nc(N2CC(O)C2)n1 [Example 768] a recorded pIC50 greater than or equal to 9?
Response: 0

Prompt: Has Cc1ccc(NC(=O)c2ccnc(C(C)(C)O)c2)cc1-c1cc(N2CCOCC2)n(C)c(=O)c1 [Example 483] a recorded pIC50 greater than or equal to 9?
Response: 0

Prompt: Has Cc1ncc(NC(=O)c2ccnc(C(C)(F)F)c2)cc1-c1cc(N2CCOCC2)c(=O)n(C)n1 [Example 678] a recorded pIC50 greater than or equal to 9?
Response: 0

---

# tested_target: b-Raf (V600E) (Homo sapiens (Human), UniProt P15056, V600E)
# details: read-out: b-Raf IC-50; AlphaScreen, 60 min pre-incubation, reaction 3 hours at room temperature
measurement_kind: log10(IC50) (log10 of the value in nM)
Please keep in mind that the values are log10 of IC50 expressed in nM.

Prompt: What value of measured log10(IC50) is listed for Cc1ccc(NC(=O)c2ccnc(C(C)(C)C#N)c2)cc1-c1nc2c(c(N3CCOCC3)n1)CCNC2 [Example 865] ?
Response: 3.57

Prompt: What value of measured log10(IC50) is listed for CCOc1cc(-c2cc(NC(=O)c3ccnc(C4CC4)c3)cnc2C)cc(N2CCOCC2)n1 [Example 1149] ?
Response: 0.50

Prompt: What value of measured log10(IC50) is listed for Cc1ncc(NC(=O)c2cc(C(F)(F)F)ccn2)cc1-c1cnc(OC2CCOCC2)c(N2CCOCC2)c1 [Example 942] ?
Response: 0.34

Prompt: What value of measured log10(IC50) is listed for CCOc1cc(-c2cc(NC(=O)c3ccnc(C(C)(C)F)c3)cnc2C)cc(N2CCOCC2)n1 [Example 1142] ?
Response: 0.50

Prompt: What value of measured log10(IC50) is listed for Cc1ccc(NC(=O)c2cnnc(C3CC3)c2)cc1-c1cc(OC2CCOCC2)nc(N2CCOCC2)c1 [Example 1154] ?
Response: -0.22

Prompt: What value of measured log10(IC50) is listed for Cc1ccc(NC(=O)c2ccnc(C(C)(C)C#N)c2)cc1-c1nc2c(c(N3CCOCC3)n1)CN(C(=O)OC(C)(C)C)CC2 [Example 864] ?
Response: 1.85

Prompt: What value of measured log10(IC50) is listed for Cc1ccc(NC(=O)c2ccnc(C(C)(F)F)c2)cc1-c1cnc(OCCO)c(N2CCOCC2)c1 [Example 1000] ?
Response: 0.33

---

# tested_target: b-Raf (V600E) (Homo sapiens (Human), UniProt P15056, V600E)
# details: read-out: b-Raf IC-50; AlphaScreen, 60 min pre-incubation, reaction 3 hours at room temperature
pIC50: −log10 of the molar value.
Please enter yes (1) where pIC50 is greater than or equal to 8, and no (0) where it is lower.

Prompt: Has Cc1ncc(NC(=O)c2ccnc(C(C)(C)F)c2)cc1-c1cnc(OC[C@H](C)O)c(N2CCOCC2)c1 a recorded pIC50 greater than or equal to 8?
Response: yes (1)

Prompt: Has Cc1ccc(NC(=O)c2ccnc(C(F)(F)F)c2)cc1-c1cc(N2CCOCC2)c2nccn2c1 a recorded pIC50 greater than or equal to 8?
Response: yes (1)

Prompt: Has Cc1ccc(NC(=O)c2ccnc(S(C)(=O)=O)c2)cc1-c1cc(N2CCOCC2)nc(N2CC(O)C2)c1 a recorded pIC50 greater than or equal to 8?
Response: yes (1)

Prompt: Has Cc1ncc(NC(=O)c2ccnc(C(C)(C)C#N)c2)cc1-c1cc(N2CCOCC2)c(S(C)(=O)=O)nn1 a recorded pIC50 greater than or equal to 8?
Response: no (0)

Prompt: Has Cc1ccc(NC(=O)c2ccnc(C(F)F)c2)cc1-c1cc(NCCO)nc(N2CCOCC2)c1 a recorded pIC50 greater than or equal to 8?
Response: yes (1)

Prompt: Has Cc1ccc(NC(=O)c2cnnc(C(F)(F)F)c2)cc1-c1c(F)c(NCCO)nc(N2CCOCC2)c1F a recorded pIC50 greater than or equal to 8?
Response: no (0)

Prompt: Has Cc1ncc(NC(=O)c2ccnc(C(C)(C)C#N)c2)cc1-c1cc(NCCO)nc(N2CCOCC2)c1 a recorded pIC50 greater than or equal to 8?
Response: no (0)

Prompt: Has Cc1ncc(NC(=O)c2ccnc(C(C)(C)O)c2)cc1-c1cc(N2CCOCC2)nc(N2CC(O)C2)c1 a recorded pIC50 greater than or equal to 8?
Response: no (0)

Prompt: Has Cc1ccc(NC(=O)c2ccnc(S(C)(=O)=O)c2)cc1-c1cnc(OC[C@H](C)O)c(N2CCOCC2)c1 a recorded pIC50 greater than or equal to 8?
Response: yes (1)

Prompt: Has Cc1ccc(NC(=O)c2cc(C(C)(C)C#N)ccn2)cc1-c1cc(N2CCOCC2)n(C)c(=O)c1 a recorded pIC50 greater than or equal to 8?
Response: yes (1)

Prompt: Has Cc1ncc(NC(=O)c2ccnc(C(C)(C)C#N)c2)cc1-c1cnc(OC2CC3(COC3)C2)c(N2CCOCC2)c1 a recorded pIC50 greater than or equal to 8?
Response: yes (1)

Prompt: Has Cc1ncc(NC(=O)c2cccc(C(F)(F)F)c2)cc1-c1cc(N2CCOCC2)c2nccn2n1 a recorded pIC50 greater than or equal to 8?
Response: yes (1)

Prompt: Has CCN1CCN(c2cc(C(=O)Nc3cnc(C)c(-c4cc(NCCO)nc(N5CCOCC5)c4)c3)cc(C(F)(F)F)c2)CC1 a recorded pIC50 greater than or equal to 8?
Response: no (0)

Prompt: Has Cc1ncc(NC(=O)c2cc(C(C)(C)O)ccn2)cc1-c1cnc(OCCO)c(N2CCOCC2)c1 a recorded pIC50 greater than or equal to 8?
Response: no (0)

Prompt: Has Cc1ncc(NC(=O)c2cccc(C(F)(F)F)c2)cc1-c1cnc(N(C)CCO)c(N2CCOCC2)c1 a recorded pIC50 greater than or equal to 8?
Response: yes (1)

Prompt: Has Cc1ncc(NC(=O)c2ccnc(C(C)(C)F)c2)cc1-c1cnc(OC2CC3(COC3)C2)c(N2CCOCC2)c1 a recorded pIC50 greater than or equal to 8?
Response: yes (1)

Prompt: Has CCC(F)(F)c1cc(C(=O)Nc2cnc(C)c(-c3cc(N4CCOCC4)c(OCC(F)F)nn3)c2)ccn1 a recorded pIC50 greater than or equal to 8?
Response: yes (1)

Prompt: Has Cc1ncc(NC(=O)c2cccc(C(F)(F)F)c2)cc1-c1cnc(OCC2COCCO2)c(N2CCOCC2)c1 (centres unmarked) a recorded pIC50 greater than or equal to 8?
Response: yes (1)

Prompt: Has Cc1ccc(NC(=O)c2ccnc(C(C)(C)C#N)c2)cc1-c1nc(N2CCOCC2)c2c(cnn2C)n1 a recorded pIC50 greater than or equal to 8?
Response: yes (1)

Prompt: Has Cc1ccc(NC(=O)c2ccnc(C(C)C)c2)cc1-c1cc(N2CCOCC2)nc(N2CCOCC2)c1 a recorded pIC50 greater than or equal to 8?
Response: yes (1)

Prompt: Has Cc1ccc(NC(=O)c2ccnc(C(C)(C)C#N)c2)cc1-c1cc(N2CCOCC2)nc(N2CC(O)C2)c1 a recorded pIC50 greater than or equal to 8?
Response: yes (1)

Prompt: Has Cc1ncc(NC(=O)c2cc(C(C)(C)O)ccn2)cc1-c1cnc(OC2CC3(COC3)C2)c(N2CCOCC2)c1 a recorded pIC50 greater than or equal to 8?
Response: no (0)
